# ASSAY PROCEDURE: NO-releasing ability under the oxidation by horseradish peroxidase (HRP) in the presence of H2O2 for 20min, expressed as nitrite concentration
# Assay type: functional
Labelling: Concentration reported below 30 µM becomes MET; at or above becomes NOT MET.

[
  {
    "COMPOUND": "N/C(=N/CCCC(N)C(=O)O)NO (stereo not drawn)",
    "ASSIGNED LABEL": "MET"
  },
  {
    "COMPOUND": "COc1ccc(C/N=C(/N)NO)cc1",
    "ASSIGNED LABEL": "NOT MET"
  },
  {
    "COMPOUND": "COc1ccc(NC(=N)NO)cc1",
    "ASSIGNED LABEL": "MET"
  },
  {
    "COMPOUND": "N=C(NO)NCc1ccccc1",
    "ASSIGNED LABEL": "NOT MET"
  },
  {
    "COMPOUND": "N/C(=N/Cc1ccc(Cl)cc1)NO",
    "ASSIGNED LABEL": "NOT MET"
  }
]

# input For Cc1ccc(NC(=N)NO)cc1 , is the recorded Concentration below the cut-off of 30 µM?
# output MET

# input Also check N=C(NO)Nc1ccccc1
# output MET

# input Also check N=C(NO)Nc1ccc(Cl)cc1
# output NOT MET

----------
# ASSAY PROCEDURE: NO-releasing ability under the oxidation by horseradish peroxidase (HRP) in the presence of H2O2 for 20min, expressed as nitrite concentration
# Format: functional
MEASUREMENT LABEL: Concentration (µM)
The reply should contain only the number, in µM.

Illustrative cases are given below, each with its answer.
[
  {
    "SMILES DATA": "N=C(N)NCCC[C@H](N)C(=O)O",
    "Concentration, µM": 0
  },
  {
    "SMILES DATA": "Cc1ccc(C/N=C(/N)NO)cc1",
    "Concentration, µM": 113
  },
  {
    "SMILES DATA": "N/C(=N/c1ccc(Br)cc1)NO",
    "Concentration, µM": 54
  }
]

Query molecule follows.
# input Item N/C(=N/Cc1ccc([N+](=O)[O-])cc1)NO has what recorded Concentration?
# output 65
